Target: sst4 receptor (Homo sapiens)
Sequence (P31391 whole entry): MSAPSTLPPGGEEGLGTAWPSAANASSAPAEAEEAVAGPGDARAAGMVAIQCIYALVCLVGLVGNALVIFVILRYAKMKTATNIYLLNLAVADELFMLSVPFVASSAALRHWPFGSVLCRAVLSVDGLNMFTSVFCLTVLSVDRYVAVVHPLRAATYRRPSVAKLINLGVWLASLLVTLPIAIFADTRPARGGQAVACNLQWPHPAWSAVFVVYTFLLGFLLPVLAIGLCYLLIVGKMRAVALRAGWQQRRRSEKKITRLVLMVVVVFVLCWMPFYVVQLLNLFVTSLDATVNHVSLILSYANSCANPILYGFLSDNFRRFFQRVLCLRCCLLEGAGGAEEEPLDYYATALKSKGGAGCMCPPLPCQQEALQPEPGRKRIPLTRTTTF
Assay: sst4 receptor-linked G-protein activation, [35S]GTPγS binding assay on membranes of sst4-expressing CHO cells
Conditions: 1 nM to 10 µM, n = 3
Measured Metric: pEC50
Scale note: pEC50 = -log10(concentration in M).

Measured pEC50, COc1ccc(CCNc2ncnc3c2c(C)c(C)n3Cc2ccccc2)cc1 : 7.18

Lookup result for COc1ccc(CNc2ncnc3c2c(C)c(C)n3Cc2ccccc2)cc1 ; measured pEC50: 7.15

Consider c1ccc(CCNc2ncnc3c2ccn3Cc2ccccc2)cc1 . Its measured pEC50 is 7.43
